# TARGET_SYSTEM: Human Factor B (human) (UniProt P00751)
# Sequence (P00751 26-764 limits assumed): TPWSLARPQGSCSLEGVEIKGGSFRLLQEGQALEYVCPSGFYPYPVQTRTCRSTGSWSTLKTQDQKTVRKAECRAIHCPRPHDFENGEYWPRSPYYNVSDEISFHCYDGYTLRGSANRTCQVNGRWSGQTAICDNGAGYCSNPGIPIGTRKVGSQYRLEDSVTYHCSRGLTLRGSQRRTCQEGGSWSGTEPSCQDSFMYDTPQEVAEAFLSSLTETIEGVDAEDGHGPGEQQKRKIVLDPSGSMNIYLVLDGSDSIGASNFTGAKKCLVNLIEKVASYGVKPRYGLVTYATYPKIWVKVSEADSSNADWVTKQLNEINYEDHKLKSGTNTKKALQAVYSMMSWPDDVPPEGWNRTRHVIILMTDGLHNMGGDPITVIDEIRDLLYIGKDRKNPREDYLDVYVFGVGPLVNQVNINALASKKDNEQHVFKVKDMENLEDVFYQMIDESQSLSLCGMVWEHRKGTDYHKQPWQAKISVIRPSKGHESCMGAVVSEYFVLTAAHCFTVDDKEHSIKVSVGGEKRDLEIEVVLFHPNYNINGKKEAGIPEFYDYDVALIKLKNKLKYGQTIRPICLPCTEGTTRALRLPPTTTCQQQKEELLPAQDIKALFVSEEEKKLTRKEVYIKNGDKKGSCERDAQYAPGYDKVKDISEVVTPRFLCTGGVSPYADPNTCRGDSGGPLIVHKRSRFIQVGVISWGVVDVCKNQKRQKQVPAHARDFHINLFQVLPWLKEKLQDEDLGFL
# TEST_METHOD_NOTES: cell-based or functional assay
PROPERTY_LABEL: fB Cleavage EC50 (nM)
Entry rule: numbers only, all in nM.

Lookup: Looking for the measured fB Cleavage EC50 of chymase C22S/D175N/A226R (enzyme) IIGGTESKPHSRPYMAYLEIVTSNGPSKFCGGFLIRRNFVLTAAHCAGRSITVTLGAHNITEEEDTWQKLEVIKQFRHPKYNTSTLHHDIMLLKLKEKASLTLAVGTLPFPSQFNFVPPGRMCRVAGWGRTGVLKPGSDTLQEVKLRLMDPQACSHFRNFDHNLQLCVGNPRKTKSAFKGDSGGPLLCAGVAQGIVSYGRSDAKPPRVFTRISHYRPWINQILQAN , can you help?
Found: 564
